Target Or Test System: T1, human IL-11 (AAH12506.1, Pro22-Leu199) (human, UniProt P20809 22-199)
T1 construct: The range Pro22-Leu199 counts on AAH12506.1; The Octet runs say only 'human IL-11'; also called hIL-11
T1 chain: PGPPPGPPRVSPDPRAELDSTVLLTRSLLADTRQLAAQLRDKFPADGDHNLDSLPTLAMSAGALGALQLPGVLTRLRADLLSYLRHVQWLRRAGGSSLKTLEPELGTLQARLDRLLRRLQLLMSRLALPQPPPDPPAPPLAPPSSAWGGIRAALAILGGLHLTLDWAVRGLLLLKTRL
Experiment Summary: BLI (Octet), antibody captured, human IL-11 in solution
Measured Metric: koff (s⁻¹)
Reply with just the number (in s⁻¹).

These solved cases illustrate the format of a correct answer.
Binder	Data Value
hz18A10-VHm14 + hz18A10-VLm19 (antibody, V domains shown, Constant regions not restated for this antibody) VH: EVQLVQSGAEVKKPGASVKVSCKASGYTFTHYQMDWVRQAPGQGLEWMGTIYPGNGDTSYNQKFKGRVTMTRDTSTSTVYMELSSLRSEDTAVYYCARGDLYALDYWGQGTLVTVSS VL: DIQMTQSPSSLSASVGDRVTITCKASQSVYRDVAWYQQKPGKAPKLLIYSASNRYTGVPSRFSGSGSGTDFTFTISSLQPEDIATYYCQHDYSSPYTFGQGTKLEIK	0.000485
hz18A10-VHm10 + hz18A10-VLm19 (antibody, V domains shown, Constant regions not restated for this antibody) VH: EVQLVQSGAEVKKPGASVKVSCKASGYTFNHYNMDWVRQAPGQGLEWMGTIYPGNGDTSYNQKFKGRVTMTRDTSTSTVYMELSSLRSEDTAVYYCARGDLYALDYWGQGTLVTVSS VL: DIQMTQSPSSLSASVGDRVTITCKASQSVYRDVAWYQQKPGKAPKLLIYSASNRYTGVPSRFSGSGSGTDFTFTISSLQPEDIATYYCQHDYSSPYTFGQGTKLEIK	0.000216
hz18A10-VHm1 + hz18A10-VLm15 (antibody, V domains shown, Constant regions not restated for this antibody) VH: EVQLVQSGAEVKKPGASVKVSCKASGYTFTTYNMDWVRQAPGQGLEWMGTIYPGNGDTSYNQKFKGRVTMTRDTSTSTVYMELSSLRSEDTAVYYCARGDLHFLDYWGQGTLVTVSS VL: DIQMTQSPSSLSASVGDRVTITCKASQSVSNDVAWYQQKPGKAPKLLIYRASSRYTGVPSRFSGSGSGTDFTFTISSLQPEDIATYYCQHDYSSPYTFGQGTKLEIK	0.000265
hz18A10-VH + hz18A10-VLm11 (antibody, V domains shown, Constant regions not restated for this antibody) VH: EVQLVQSGAEVKKPGASVKVSCKASGYTFTTYNMDWVRQAPGQGLEWMGTIYPGNGDTSYNQKFKGRVTMTRDTSTSTVYMELSSLRSEDTAVYYCARGDLYALDYWGQGTLVTVSS VL: DIQMTQSPSSLSASVGDRVTITCKASQSVSNDVAWYQQKPGKAPKLLIYRASNRYTGVPSRFSGSGSGTDFTFTISSLQPEDIATYYCQHDYSSPYTFGQGTKLEIK	0.00134
hz18A10-VHm6 + hz18A10-VLm19 (antibody, V domains shown, Constant regions not restated for this antibody) VH: EVQLVQSGAEVKKPGASVKVSCKASGYTFNHYDMDWVRQAPGQGLEWMGTIYPGNGDTSYNQKFKGRVTMTRDTSTSTVYMELSSLRSEDTAVYYCARGDLYALDYWGQGTLVTVSS VL: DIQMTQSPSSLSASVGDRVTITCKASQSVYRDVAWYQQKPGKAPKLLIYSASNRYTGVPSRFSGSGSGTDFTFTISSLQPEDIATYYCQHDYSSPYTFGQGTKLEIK	0.000194

Next up:
*Q* Given the binder hz18A10-VH + hz18A10-VLm5 (antibody, V domains shown, Constant regions not restated for this antibody) VH: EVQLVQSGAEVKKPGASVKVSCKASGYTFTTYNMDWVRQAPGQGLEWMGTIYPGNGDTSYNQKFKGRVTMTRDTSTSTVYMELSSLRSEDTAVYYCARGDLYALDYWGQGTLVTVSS VL: DIQMTQSPSSLSASVGDRVTITCKASQSVSNDIAWYQQKPGKAPKLLIYSASNRYTGVPSRFSGSGSGTDFTFTISSLQPEDIATYYCQHDYSSPYTFGQGTKLEIK , what is its reported koff?
*A* 0.00281
